Data origin, for the record: the NIST ThermoML archive (doi:10.1016/j.jct.2014.01.004)

Conditions: 298.15 K; 101.33 kPa; Liquid; Vibrating tube method
Numbers after ± are expanded uncertainties.

| compound | mass density |
| --- | --- |
| CCC[NH3+].O=C[O-] [propylammonium formate] | 993.47 ± 5.3 kg/m3 |
| CC(=O)[O-].[NH3+]CCCO [3-hydroxypropylammonium acetate] | 1112.02 ± 6.7 kg/m3 |
| O=C([O-])C(F)(F)F.[NH3+]CCCO [3-hydroxypropylammonium trifluoroacetate] | 1307.81 ± 19 kg/m3 |
| CC(=O)[O-].CCC[NH3+] [propylammonium acetate] | 986.91 ± 5.3 kg/m3 |
| O=C[O-].[NH3+]CCCO [3-hydroxypropylammonium formate] | 1145.84 ± 7.1 kg/m3 |

---

Conditions: 313.15 K; 101.33 kPa; Liquid; Falling or rolling sphere viscometry
Each item that follows carries a reported viscosity.

| compound | unit_of_measurement | viscosity |
| --- | --- | --- |
| O=C([O-])C(F)(F)F.[NH3+]CCCO [3-hydroxypropylammonium trifluoroacetate] | mPa·s | 352.31 |
| CC(=O)[O-].CCC[NH3+] [propylammonium acetate] | mPa·s | 226.35 |
| O=C[O-].[NH3+]CCCO [3-hydroxypropylammonium formate] | mPa·s | 122.56 |
| CCC[NH3+].O=C[O-] [propylammonium formate] | mPa·s | 43.97 |
| CC(=O)[O-].[NH3+]CCCO [3-hydroxypropylammonium acetate] | mPa·s | 970.9 |

---

Settings: 308.15 K; 101.33 kPa; Liquid; Falling or rolling sphere viscometry
Each item that follows carries a reported viscosity.
measurement_type: viscosity (mPa·s)

| molecule | unit_of_measurement | reported_value |
| --- | --- | --- |
| CCC[NH3+].O=C[O-] [propylammonium formate] | mPa·s | 52.67 |
| O=C[O-].[NH3+]CCCO [3-hydroxypropylammonium formate] | mPa·s | 154.49 |
| CC(=O)[O-].[NH3+]CCCO [3-hydroxypropylammonium acetate] | mPa·s | 1348.5 |
| CC(=O)[O-].CCC[NH3+] [propylammonium acetate] | mPa·s | 309.95 |
| O=C([O-])C(F)(F)F.[NH3+]CCCO [3-hydroxypropylammonium trifluoroacetate] | mPa·s | 483.03 |

---

Conditions: 293.15 K; 101.33 kPa; Liquid; Sing-around technique in a fixed-path interferometer
± gives the expanded uncertainty stated by the source.
Each item that follows carries a reported speed of sound.

| molecule | speed of sound |
| --- | --- |
| CC(=O)[O-].CCC[NH3+] [propylammonium acetate] | 1517.1 ± 5.1 m/s |
| CCC[NH3+].O=C[O-] [propylammonium formate] | 1553.1 ± 5.2 m/s |
| O=C([O-])C(F)(F)F.[NH3+]CCCO [3-hydroxypropylammonium trifluoroacetate] | 1487.9 ± 7.1 m/s |
| CC(=O)[O-].[NH3+]CCCO [3-hydroxypropylammonium acetate] | 1779.8 ± 5.2 m/s |
| O=C[O-].[NH3+]CCCO [3-hydroxypropylammonium formate] | 1824.3 ± 5.2 m/s |

---

Settings: 318.15 K; 101.33 kPa; Liquid; Vibrating tube method
measurement_type: mass density (kg/m3)

| compound | reported_value |
| --- | --- |
| O=C[O-].[NH3+]CCCO [3-hydroxypropylammonium formate] | 1136.12 |
| O=C([O-])C(F)(F)F.[NH3+]CCCO [3-hydroxypropylammonium trifluoroacetate] | 1293.34 |
| CC(=O)[O-].[NH3+]CCCO [3-hydroxypropylammonium acetate] | 1101.8 |
| CCC[NH3+].O=C[O-] [propylammonium formate] | 982.75 |
| CC(=O)[O-].CCC[NH3+] [propylammonium acetate] | 974.6 |

---

Each item that follows carries a reported speed of sound.
Details: 308.15 K; 101.33 kPa; Liquid; Sing-around technique in a fixed-path interferometer

| compound | speed of sound [m/s] |
| --- | --- |
| O=C([O-])C(F)(F)F.[NH3+]CCCO [3-hydroxypropylammonium trifluoroacetate] | 1454.9 |
| CCC[NH3+].O=C[O-] [propylammonium formate] | 1522.2 |
| CC(=O)[O-].[NH3+]CCCO [3-hydroxypropylammonium acetate] | 1753.3 |
| O=C[O-].[NH3+]CCCO [3-hydroxypropylammonium formate] | 1800.5 |
| CC(=O)[O-].CCC[NH3+] [propylammonium acetate] | 1487.6 |

---

Conditions: 338.15 K; 101.33 kPa; Liquid; Vibrating tube method
Each item that follows carries a reported mass density.

| compound | mass density (kg/m3) |
| --- | --- |
| O=C([O-])C(F)(F)F.[NH3+]CCCO [3-hydroxypropylammonium trifluoroacetate] | 1278.88 |
| CCC[NH3+].O=C[O-] [propylammonium formate] | 972.15 |
| CC(=O)[O-].CCC[NH3+] [propylammonium acetate] | 962.17 |
| O=C[O-].[NH3+]CCCO [3-hydroxypropylammonium formate] | 1126.61 |
| CC(=O)[O-].[NH3+]CCCO [3-hydroxypropylammonium acetate] | 1091.59 |

---

Each item that follows carries a reported speed of sound.
Conditions: 323.15 K; 101.33 kPa; Liquid; Sing-around technique in a fixed-path interferometer
measurement_type: speed of sound (m/s)

| molecule | unit_of_measurement | reported_value |
| --- | --- | --- |
| O=C([O-])C(F)(F)F.[NH3+]CCCO [3-hydroxypropylammonium trifluoroacetate] | m/s | 1424.2 |
| CC(=O)[O-].CCC[NH3+] [propylammonium acetate] | m/s | 1457.5 |
| O=C[O-].[NH3+]CCCO [3-hydroxypropylammonium formate] | m/s | 1776.4 |
| CC(=O)[O-].[NH3+]CCCO [3-hydroxypropylammonium acetate] | m/s | 1727.8 |
| CCC[NH3+].O=C[O-] [propylammonium formate] | m/s | 1491.7 |

---

Details: 303.15 K; 101.33 kPa; Liquid; Falling or rolling sphere viscometry

| molecule | unit_of_measurement | viscosity |
| --- | --- | --- |
| O=C([O-])C(F)(F)F.[NH3+]CCCO [3-hydroxypropylammonium trifluoroacetate] | mPa·s | 677.32 |
| CC(=O)[O-].CCC[NH3+] [propylammonium acetate] | mPa·s | 435.42 |
| CCC[NH3+].O=C[O-] [propylammonium formate] | mPa·s | 63.58 |
| O=C[O-].[NH3+]CCCO [3-hydroxypropylammonium formate] | mPa·s | 198.39 |
| CC(=O)[O-].[NH3+]CCCO [3-hydroxypropylammonium acetate] | mPa·s | 1937 |

---

Each item that follows carries a reported viscosity.
Settings: 333.15 K; 101.33 kPa; Liquid; Falling or rolling sphere viscometry

| compound | unit_of_measurement | viscosity |
| --- | --- | --- |
| CCC[NH3+].O=C[O-] [propylammonium formate] | mPa·s | 23.32 |
| O=C([O-])C(F)(F)F.[NH3+]CCCO [3-hydroxypropylammonium trifluoroacetate] | mPa·s | 119.86 |
| CC(=O)[O-].[NH3+]CCCO [3-hydroxypropylammonium acetate] | mPa·s | 305.97 |
| CC(=O)[O-].CCC[NH3+] [propylammonium acetate] | mPa·s | 78.03 |
| O=C[O-].[NH3+]CCCO [3-hydroxypropylammonium formate] | mPa·s | 53.98 |

---

Conditions: 338.15 K; 101.33 kPa; Liquid; Falling or rolling sphere viscometry

| molecule | viscosity [mPa·s] |
| --- | --- |
| O=C[O-].[NH3+]CCCO [3-hydroxypropylammonium formate] | 45.36 |
| CC(=O)[O-].[NH3+]CCCO [3-hydroxypropylammonium acetate] | 238.21 |
| CC(=O)[O-].CCC[NH3+] [propylammonium acetate] | 61.96 |
| O=C([O-])C(F)(F)F.[NH3+]CCCO [3-hydroxypropylammonium trifluoroacetate] | 94.92 |
| CCC[NH3+].O=C[O-] [propylammonium formate] | 20.18 |

---

Conditions: 343.15 K; 101.33 kPa; Liquid; Sing-around technique in a fixed-path interferometer
Each item that follows carries a reported speed of sound.

| compound | speed of sound / m/s |
| --- | --- |
| CC(=O)[O-].[NH3+]CCCO [3-hydroxypropylammonium acetate] | 1693.6 |
| CCC[NH3+].O=C[O-] [propylammonium formate] | 1452 |
| O=C[O-].[NH3+]CCCO [3-hydroxypropylammonium formate] | 1744.7 |
| O=C([O-])C(F)(F)F.[NH3+]CCCO [3-hydroxypropylammonium trifluoroacetate] | 1382.8 |
| CC(=O)[O-].CCC[NH3+] [propylammonium acetate] | 1417.5 |

---

Each item that follows carries a reported mass density.
Conditions: 313.15 K; 101.33 kPa; Liquid; Vibrating tube method
measurement_type: mass density (kg/m3)

| compound | measurement_type | reported_value |
| --- | --- | --- |
| CC(=O)[O-].CCC[NH3+] [propylammonium acetate] | mass density | 977.69 |
| CCC[NH3+].O=C[O-] [propylammonium formate] | mass density | 985.42 |
| O=C([O-])C(F)(F)F.[NH3+]CCCO [3-hydroxypropylammonium trifluoroacetate] | mass density | 1296.96 |
| CC(=O)[O-].[NH3+]CCCO [3-hydroxypropylammonium acetate] | mass density | 1104.36 |
| O=C[O-].[NH3+]CCCO [3-hydroxypropylammonium formate] | mass density | 1138.53 |
